assay text: recombinant UMI read abundance after kanamycin selection (control-corrected) (log10(CPM+1)); higher = more efficient recombination; extreme values may be limits of the assay; sequences stand for … in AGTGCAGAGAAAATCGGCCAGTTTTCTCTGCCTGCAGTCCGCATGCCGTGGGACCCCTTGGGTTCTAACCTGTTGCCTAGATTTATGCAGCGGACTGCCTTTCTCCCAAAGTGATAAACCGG…AGGTTGGTTTCACT; site = the 11-nt donor;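 further: IS621 bridge recombinase in Escherichia coli cells against a fixed T5 target plasmid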
attribute measured: recombinant UMI read abundance (log10)
Hey, just send me the number, nothing else.

The reported recombinant UMI read abundance (log10) of the sequence CAGTTACCATGGACCGGTTTTCCCGGTAATCCGTATTTGCC (site CAGTTACCTGG) was 0

The reported recombinant UMI read abundance (log10) of the sequence GAATGCACATGGACCGGTTTTCCCGGTAATCCGTATTTGTA (site GTATGCACTTA) was 0.36

The reported recombinant UMI read abundance (log10) of the sequence CTGGTACCATGGACCGGTTTTCCCGGTAATCCGTATTTGCT (site CTGCTACCTAG) was 0

The reported recombinant UMI read abundance (log10) of the sequence GATATGCCATGGACCGGTTTTCCCGGTAATCCGTATTTGCT (site GATATGCCTAG) was 0

The reported recombinant UMI read abundance (log10) of the sequence CATTTATCATGGACCGGTTTTCCCGGTAATCCGTATTTGCA (site GCCCGTCCTAC) was 0.031

The reported recombinant UMI read abundance (log10) of the sequence CCGAAAACATGGACCGGTTTTCCCGGTAATCCGTATTTGCT (site ACGAAAACTAG) was 0

The reported recombinant UMI read abundance (log10) of the sequence CACCTGGCATGGACCGGTTTTCCCGGTAATCCGTATTTGGA (site CACCTGGCTTC) was 0.595

The reported recombinant UMI read abundance (log10) of the sequence ACAGACTCATGGACCGGTTTTCCCGGTAATCCGTATTTGCA (site ACAGACTCTTG) was 2.44

The reported recombinant UMI read abundance (log10) of the sequence CTGCCACCATGGACCGGTTTTCCCGGTAATCCGTATTTGCT (site CTGCTACCTAG) was 0

The reported recombinant UMI read abundance (log10) of the sequence TGTACGCCATGGACCGGTTTTCCCGGTAATCCGTATTTGAC (site TGTACTCCTGT) was 0

The reported recombinant UMI read abundance (log10) of the sequence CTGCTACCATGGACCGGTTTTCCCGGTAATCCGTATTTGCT (site CTGGTACCTAG) was 0

The reported recombinant UMI read abundance (log10) of the sequence CGTAGATCATGGACCGGTTTTCCCGGTAATCCGTATTTGCA (site CGTAGATCTTG) was 2.44

The reported recombinant UMI read abundance (log10) of the sequence CGAGGACCATGGACCGGTTTTCCCGGTAATCCGTATTTGGC (site CGAGGACCTAC) was 0.0204

The reported recombinant UMI read abundance (log10) of the sequence AATGACTCATGGACCGGTTTTCCCGGTAATCCGTATTTGAG (site AATGACTCTCT) was 2.08

The reported recombinant UMI read abundance (log10) of the sequence TCTGAGACATGGACCGGTTTTCCCGGTAATCCGTATTTGCG (site TCTGAGACTCG) was 0.476

The reported recombinant UMI read abundance (log10) of the sequence GCGTATGCATGGACCGGTTTTCCCGGTAATCCGTATTTGTA (site GCGTATGCTTA) was 2.99

The reported recombinant UMI read abundance (log10) of the sequence CCTAATCCATGGACCGGTTTTCCCGGTAATCCGTATTTGGC (site CCTAATTCTGC) was 0

The reported recombinant UMI read abundance (log10) of the sequence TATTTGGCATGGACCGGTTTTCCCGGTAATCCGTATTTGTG (site TATTTGGCTCC) was 0.0133

The reported recombinant UMI read abundance (log10) of the sequence GTCCGAGCATGGACCGGTTTTCCCGGTAATCCGTATTTGCA (site GTTCGAGCTTG) was 0

The reported recombinant UMI read abundance (log10) of the sequence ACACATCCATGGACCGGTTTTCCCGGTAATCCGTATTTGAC (site ACACATCCTGG) was 0

The reported recombinant UMI read abundance (log10) of the sequence CACTCCCCATGGACCGGTTTTCCCGGTAATCCGTATTTGCC (site CACTCCACTGG) was 0

The reported recombinant UMI read abundance (log10) of the sequence TCATACTCATGGACCGGTTTTCCCGGTAATCCGTATTTGCT (site TCATACTCTGG) was 0

The reported recombinant UMI read abundance (log10) of the sequence GGCAATCCATGGACCGGTTTTCCCGGTAATCCGTATTTGCA (site GGCAATCCTTA) was 0.227

The reported recombinant UMI read abundance (log10) of the sequence TAGTATACATGGACCGGTTTTCCCGGTAATCCGTATTTGCA (site TAGTATACTTG) was 2.25

The reported recombinant UMI read abundance (log10) of the sequence AGAGATGCATGGACCGGTTTTCCCGGTAATCCGTATTTGGG (site AGAGATGCTCC) was 1.2

The reported recombinant UMI read abundance (log10) of the sequence AATTAAACATGGACCGGTTTTCCCGGTAATCCGTATTTGTA (site AATTAAACTTA) was 0.643

The reported recombinant UMI read abundance (log10) of the sequence GAGACGACATGGACCGGTTTTCCCGGTAATCCGTATTTGGG (site GAGACGACTCC) was 0.501

The reported recombinant UMI read abundance (log10) of the sequence AGTGTTACATGGACCGGTTTTCCCGGTAATCCGTATTTGCT (site AGTGTTACTAG) was 2.01
